// GI50 lookup, one value per entry
System: DU-145
Test: NCI tumour cell line growth inhibition, 48 h
The source made the active and inactive calls. Cut-off read from the data, not from the text of the source: active = GI50 up to about 1.1 µM and inactive = higher.
experimental-endpoint: GI50

# molecule, system-tested, readout-value
measured = [
    ("CCNC(=S)NNC(=O)c1ccccc1Nc1ccccc1C(=O)NNC(=S)NCC", "DU-145", "> 100 µM (inactive)"),
    ("O=C(/C=C/c1ccccc1)Oc1ccc(C(=O)/C=C/c2ccc(Cl)cc2)cc1", "DU-145", "59.8 µM (inactive)"),
    ("O=C1CS(=O)(=O)C(c2cccc(Oc3ccccc3)c2)N1c1cc(Cl)ccc1Cl (configuration not stated)", "DU-145", "17.9 µM (inactive)"),
    ("CN(C)/C=N/c1ccc2[nH]c3ccccc3c2c1", "DU-145", "> 100 µM (inactive)"),
    ("COc1cc(/C=C(\\C)[N+](=O)[O-])cc(OC)c1", "DU-145", "18.7 µM (inactive)"),
    ("Cc1ccc(NCCN(C)C)c2c(=O)c3cc(O)ccc3sc12", "DU-145", "2.18 µM (inactive)"),
    ("CC(C)(C)[Si](C)(C)OCC1OC(n2cnc3c(=O)[nH]c(N)nc32)C(O[Si](C)(C)C(C)(C)C)C1O[Si](C)(C)C(C)(C)C (configuration not stated)", "DU-145", "2.33 µM (inactive)"),
    ("O=C(CC(C(=O)c1ccco1)c1cccs1)c1cccs1 (configuration not stated)", "DU-145", "> 100 µM (inactive)"),
    ("CC(C)Cc1cnc(CC(C)C)c(=O)[nH]1", "DU-145", "> 100 µM (inactive)"),
    ("COc1ccc(-c2oc3cc(OC)c(OC)c(OC)c3c(=O)c2OC)cc1OC", "DU-145", "> 100 µM (inactive)"),
    ("C=C(C(=O)O)[C@@H]1C[C@@H]2O[C@H]1CC(C)=CCC/C(C)=C/CC[C@@]2(C)O", "DU-145", "> 100 µM (inactive)"),
    ("Cc1cn([C@@H]2O[C@H](CO[Si](C)(C)C(C)(C)C)[C@]3(O[C@H]3C(=O)NO)[C@H]2O[Si](C)(C)C(C)(C)C)c(=O)[nH]c1=O", "DU-145", "1.89 µM (inactive)"),
    ("Cc1ccc(NC(=S)C#N)c(C)c1", "DU-145", "> 100 µM (inactive)"),
    ("O=C(Nc1ccc(N=C=S)cc1Cl)c1cc(Br)cc(Br)c1O", "DU-145", "15.9 µM (inactive)"),
    ("Cn1ccnc1CCc1ccc(F)cc1F", "DU-145", "> 100 µM (inactive)"),
    ("N#CC1C(=O)SC2c3ccccc3C(=O)c3ccccc3C12 (configuration not stated)", "DU-145", "> 10 µM (inactive)"),
    ("CCN(CC)CCOC(c1cc(OC)ccc1OC)c1ccc2n1-c1ccccc1OC2 (configuration not stated)", "DU-145", "22.9 µM (inactive)"),
    ("CC(=O)c1cccc2c1CC1(C2)Cc2ccc3c(c2C1=O)CCC3 (configuration not stated)", "DU-145", "79.1 µM (inactive)"),
    ("N#Cc1c(NC(=O)CCC(=O)O)ccc2ccccc12", "DU-145", "> 100 µM (inactive)"),
    ("CCOC(=O)c1cccc(NC(=O)CBr)c1", "DU-145", "1.82 µM (inactive)"),
    ("CC(C)(CN1CCCCC1)C(/C=C/c1ccc(Cl)cc1)=N\\NC(=O)N/N=C(/C=C/c1ccc(Cl)cc1)C(C)(C)CN1CCCCC1", "DU-145", "6.01 µM (inactive)"),
    ("Cc1cc(S(=O)(=O)[N-]/C(=N/S(=O)(=O)c2cc(Cl)sc2Cl)[n+]2ccc(N(C)C)cc2)c(S)cc1Cl", "DU-145", "39.4 µM (inactive)"),
]

----------
System: T47D
Assay: NCI tumour cell line growth inhibition, 48 h
Active and inactive are the calls of the source. No stated cut-off is given here; in the data, active = GI50 up to about 1.1 µM and inactive = higher.
GI50 by entry:

# molecule, GI50
rows = [
    ("CC1CC/C(=C\\c2ccc(N(C)C)cc2)C(=O)/C1=C/c1ccc(N(C)C)cc1 (stereo not given)", "> 100 µM (inactive)"),
    ("COc1cc(OC)cc(-c2nc(O)c3ccccc3n2)c1", "> 100 µM (inactive)"),
    ("Cc1cccc2c(N)c3cccc(C(=O)NCC[N+](C)(C)[O-])c3nc12", "13.8 µM (inactive)"),
    ("ON[C@@H]1C=C[C@H](n2cnc3c(NC4CC4)ncnc32)C1", "> 100 µM (inactive)"),
    ("CSc1nn(C)cc2nc(C)nc1-2", "> 100 µM (inactive)"),
    ("CC1(c2ccc(F)cc2)CC(c2ccc(F)cc2)=C(C#N)C(=C(C#N)C#N)N1 (stereo not given)", "13.3 µM (inactive)"),
    ("COc1ccc(N2C(=O)C(=O)N(c3ccccc3[N+](=O)[O-])C2=S)cc1", "22.6 µM (inactive)"),
    ("CC1(C)O[C@@H](CP(c2ccc3ccccc3c2)c2ccc3ccccc3c2)[C@H](CP(c2ccc3ccccc3c2)c2ccc3ccccc3c2)O1", "78.2 µM (inactive)"),
    ("Cn1c(COC(=O)NC2CCCCC2)c(COC(=O)NC2CCCCC2)c2ccc3cc(Cl)c(Cl)cc3c21", "5.37 µM (inactive)"),
    ("OC(c1ccsc1)c1cc2ccccc2s1 (stereo not given)", "> 10 µM (inactive)"),
]

----------
Test system: MOLT-4
Test: NCI tumour cell line growth inhibition, 48 h
Active and inactive are the calls of the source. Rule as the data show it: active = GI50 up to about 1.1 µM and inactive = higher.
Labels: active, inactive

# compound, group
measured = [
    ("CN(C)CCNC(=O)c1ccc(Cl)c2ccc(-c3ccccc3)nc12", "inactive"),
    ("COc1cc(C2C(Cl)C(=O)N2NC(=O)c2ccccc2O)cc(OC)c1OC (configuration not stated)", "inactive"),
    ("C[n+]1c2ccccc2n2c3ccccc3c(NCc3ccco3)c(C#N)c21", "active"),
    ("Nc1c(S(=O)(=O)c2ccccc2)c2nc3ccccc3nc2n2c1nc1ccccc12", "inactive"),
    ("O=C(COc1ccccc1)NS(=O)(=O)c1ccccc1", "inactive"),
    ("COc1cc2cc3c4c(cc(OC)c(OC)c4c2cc1OC)CCN3", "inactive"),
    ("COc1ccc2cc(-c3nc(N)nc(N4N=C(C)CC4(C)C)n3)c(=N)oc2c1", "inactive"),
]

----------
Tested on: M14
Assay: NCI tumour cell line growth inhibition, 48 h
Active and inactive are the calls of the source. Cut-off read from the data, not from the text of the source: active = GI50 up to about 1.1 µM and inactive = higher.

# compound, GI50
records = [
    ("COC(=O)C(=O)C(C(=O)Nc1cccc(C)c1C)C1Sc2ccccc2NC1=O (stereo unspecified)", "8.55 µM (inactive)"),
    ("C=CCOC(=O)CC[N+]1=CCC(c2ccccc2)(c2ccccc2)O1", "> 100 µM (inactive)"),
    ("CCOP(=O)(OCC)/C(C#N)=C(\\C)c1ccco1", "> 10 µM (inactive)"),
    ("CCOCc1cc(=O)c2c(O)cc3c(c2o1)CCC(C)(C)O3", "> 100 µM (inactive)"),
    ("O=C(O)C1CCCCN1CCc1c[nH]c2ccccc12 (stereo unspecified)", "> 100 µM (inactive)"),
    ("Cc1ccc(S(=O)(=O)NNS(C)(=O)=O)cc1", "> 100 µM (inactive)"),
    ("CN(C)C(=S)OC(Cn1cncn1)c1ccc(Cl)cc1Cl (stereo unspecified)", "> 100 µM (inactive)"),
    ("C=CC/C=C/C/C=C/CCCCCCCc1cccc(O)c1C(=O)O", "82.8 µM (inactive)"),
    ("Cc1n[nH]c(=O)n1/N=C/c1cccs1", "> 100 µM (inactive)"),
    ("CCCCCC1CC=CC(NC(=O)OCc2ccccc2)C1/C=C/CCCC1OCCO1 (stereo unspecified)", "> 100 µM (inactive)"),
    ("O=C(C=P(c1ccccc1)(c1ccccc1)c1ccccc1)c1ccc(-c2cccs2)cc1", "2.57 µM (inactive)"),
]

----------
Recorded GI50 for the following molecules
System: OVCAR-5
Experiment: NCI tumour cell line growth inhibition, 48 h
The source made the active and inactive calls. Rule as the data show it: active = GI50 up to about 1.1 µM and inactive = higher.

# molecule, GI50
records = [
    ("CC1=NN(c2cccc(Cl)c2)C2(C1=Cc1ccccc1)C(Cl)C(=O)N2c1nc2ccccc2s1 (stereo not drawn)", "21.3 µM (inactive)"),
    ("NC(=O)N/N=C1/c2ccccc2-n2nccc21", "> 100 µM (inactive)"),
    ("Cc1ccc2c(=O)[nH]sc2c1", "94 µM (inactive)"),
]

----------
Tested on: RXF 393
Assay: NCI tumour cell line growth inhibition, 48 h
Calls of active or inactive are those of the source. Rule as the data show it: active = GI50 up to about 1.1 µM and inactive = higher.
GI50 values, listed per item

# compound, GI50
records = [
    ("C[C@]12CCC(=O)C=C1CC[C@@H]1C2CC[C@@]2(C)C1CC[C@@H]2OC(=O)C12OC1CCC2=O (stereo not given in full)", "5.16 µM (inactive)"),
    ("[N-]=[N+]=NC(c1cn(C2CC(O)C(CO)O2)c(=O)[nH]c1=O)C(I)I (stereo not given)", "> 100 µM (inactive)"),
    ("Cc1ccc(N/N=C/C2=CC(C)(C)C(C#N)(C#N)C(O)=C2C#N)cc1", "33.2 µM (inactive)"),
    ("Cc1cc(C(=O)CSC(=S)SC(C)(C)C)ccc1Cl", "13.4 µM (inactive)"),
    ("CC(=O)/N=C1/N(/C=C2\\C(=O)Oc3ccccc3C2=O)C(=O)/C(=C/c2cccc(Cl)c2Cl)N1C", "31.6 µM (inactive)"),
]
